B1: RTP4 (parent)
chain: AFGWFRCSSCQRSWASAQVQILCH

Variants of: B1
Assay: protein stability index of a GFP-peptide fusion (GPS, HEK-293T) (PSI 1-6); higher = more stable;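 further: lentivirally expressed fusions sorted by FACS into six bins by GFP to DsRed ratio, PSI derived from sequencing read proportions per bin multiplied by bin number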
Conditions: c terminus: a fixed tail appended
Given measured protein stability index, output Yes if it is greater than or equal to 2 and No if not.

## Task Assess whether reported protein stability index for AFGWFRCSSCQRSWASNQVQILCH [A17N] sits at 2 or higher.
## Result No

Entry source: the supplement of paper PMC10567573
